Assay: in vivo
Conditions: 0.05 mg/kg, AUC0-inf
metric: AUC(0-inf) (µM·h)
Answers are plain numbers, in µM·h.

Quick note, AUC(0-inf) for O=C(O)c1ccccc1C(=O)Nc1ccc(-c2ccccc2)cc1 landed at 0.342

---

Assay: in vivo
Conditions: 0.05 mg/kg
metric: Tmax (h)
Numbers only, in h.

The measured Tmax associated with O=C(O)c1ccccc1C(=O)Nc1ccc(-c2ccccc2)cc1 reads 1

---

Assay: in vivo
Settings: Plasma Conc.
metric: concentration at 3 h (µM)
Numbers only, in µM.

Record O=C(O)c1ccccc1C(=O)Nc1ccc(-c2ccccc2)cc1 . Reported concentration at 3 h: 0.0336
